All values here come from ChEMBL document CHEMBL1128809.

test: Stability in human plasma 4 hr after incubation expressed as percent concentration; type: ADME, cell-free; settings: read-out: Concentration
Measured parameter: remaining at 4 h (%)

# Line notation, Measured parameter, Reading
records = [
    ("O=C(N[C@@H]1CCC[C@H]1OCc1cc(O)c(C(=O)c2c(O)cccc2C(=O)O)c(O)c1)c1ccc(O)cc1", "remaining at 4 h", 100),
    ("O=C(N[C@@H]1CNC[C@H]1NC(=O)c1cc(O)c(C(=O)c2c(O)cccc2C(=O)O)c(O)c1)c1ccc(O)cc1", "remaining at 4 h", 104),
    ("O=C(N[C@@H]1CNC[C@H]1OC(=O)c1cc(O)c(C(=O)c2c(O)cccc2C(=O)O)c(O)c1)c1ccc(O)cc1", "remaining at 4 h", 103),
]

* * *

molecular target: Protein kinase C alpha type (Homo sapiens, UniProt P17252)
pIC50: −log10 of the molar value.
Measured parameter: pIC50

# Molecule, pIC50
rows = [
    ("O=C(N[C@@H]1CNCCC[C@H]1OC(=O)c1cc(O)c(C(=O)c2c(O)cccc2C(=O)O)c(O)c1)c1ccc(O)cc1 (racemic)", 7.17),
]

a = O=C(N[C@@H]1CCCNC[C@H]1NC(=O)c1ccc(O)cc1)c1cc(O)c(C(=O)c2c(O)cccc2C(=O)O)c(O)c1
b = O=C(N[C@@H]1CNC[C@H]1NC(=O)c1cc(O)c(C(=O)c2c(O)cccc2C(=O)O)c(O)c1)c1ccc(O)cc1
Which shows the larger pIC50 value: a or b ? Mark your answer with the label of the selected entry.
b
(b: 6.04, a: 5.49)

* * *

biological target: Protein kinase C beta type (Homo sapiens, UniProt P05771); experiment: Inhibition of Protein kinase C beta 1
Sequence (P05771 whole entry): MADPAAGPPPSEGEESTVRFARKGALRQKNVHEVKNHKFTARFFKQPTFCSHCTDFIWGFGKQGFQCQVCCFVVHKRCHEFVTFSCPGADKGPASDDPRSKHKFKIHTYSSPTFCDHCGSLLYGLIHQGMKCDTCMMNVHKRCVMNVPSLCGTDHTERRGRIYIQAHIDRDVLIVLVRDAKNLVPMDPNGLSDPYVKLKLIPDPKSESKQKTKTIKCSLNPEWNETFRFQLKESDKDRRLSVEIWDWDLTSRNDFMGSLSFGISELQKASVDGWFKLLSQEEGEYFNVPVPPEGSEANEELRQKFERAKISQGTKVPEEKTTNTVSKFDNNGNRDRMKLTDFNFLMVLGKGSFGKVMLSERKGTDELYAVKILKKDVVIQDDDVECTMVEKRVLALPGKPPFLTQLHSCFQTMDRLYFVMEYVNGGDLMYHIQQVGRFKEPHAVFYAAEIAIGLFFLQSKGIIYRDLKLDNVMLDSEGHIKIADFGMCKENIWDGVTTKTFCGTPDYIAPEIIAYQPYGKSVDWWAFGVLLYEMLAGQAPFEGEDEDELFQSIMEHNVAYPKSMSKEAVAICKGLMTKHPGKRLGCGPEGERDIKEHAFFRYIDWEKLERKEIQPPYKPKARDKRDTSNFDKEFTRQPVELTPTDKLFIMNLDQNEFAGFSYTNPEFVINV
pIC50: −log10 of the molar value.
Measured parameter: pIC50

The cases that follow already have their pIC50 on record.
# Line notation, Reading
data = [
    ("O=C(N[C@@H]1CCC[C@H]1COC(=O)c1cc(O)c(C(=O)c2c(O)cccc2C(=O)O)c(O)c1)c1ccc(O)cc1", 7.40),
    ("O=C(NC[C@@H]1CCC[C@H]1NC(=O)c1ccc(O)cc1)c1cc(O)c(C(=O)c2c(O)cccc2C(=O)O)c(O)c1", 4.77),
    ("O=C(N[C@@H]1CCCNC[C@H]1NC(=O)c1ccc(O)cc1)c1cc(O)c(C(=O)c2c(O)cccc2C(=O)O)c(O)c1", 6.20),
]

1 = O=C(N[C@@H]1CNC[C@H]1NC(=O)c1cc(O)c(C(=O)c2c(O)cccc2C(=O)O)c(O)c1)c1ccc(O)cc1
2 = C[C@@]1(OC(=O)c2cc(O)c(C(=O)c3c(O)cccc3C(=O)O)c(O)c2)CCCNC[C@H]1NC(=O)c1ccc(O)cc1
3 = O=C(N[C@@H]1CNC[C@H]1OC(=O)c1cc(O)c(C(=O)c2c(O)cccc2C(=O)O)c(O)c1)c1ccc(O)cc1
Reorder the items by pIC50, least to greatest. Your answer should be the labels, listed in the requested order.
1, 2, 3
(1: 6.66, 2: 6.92, 3: 8.00)

* * *

Target sequence: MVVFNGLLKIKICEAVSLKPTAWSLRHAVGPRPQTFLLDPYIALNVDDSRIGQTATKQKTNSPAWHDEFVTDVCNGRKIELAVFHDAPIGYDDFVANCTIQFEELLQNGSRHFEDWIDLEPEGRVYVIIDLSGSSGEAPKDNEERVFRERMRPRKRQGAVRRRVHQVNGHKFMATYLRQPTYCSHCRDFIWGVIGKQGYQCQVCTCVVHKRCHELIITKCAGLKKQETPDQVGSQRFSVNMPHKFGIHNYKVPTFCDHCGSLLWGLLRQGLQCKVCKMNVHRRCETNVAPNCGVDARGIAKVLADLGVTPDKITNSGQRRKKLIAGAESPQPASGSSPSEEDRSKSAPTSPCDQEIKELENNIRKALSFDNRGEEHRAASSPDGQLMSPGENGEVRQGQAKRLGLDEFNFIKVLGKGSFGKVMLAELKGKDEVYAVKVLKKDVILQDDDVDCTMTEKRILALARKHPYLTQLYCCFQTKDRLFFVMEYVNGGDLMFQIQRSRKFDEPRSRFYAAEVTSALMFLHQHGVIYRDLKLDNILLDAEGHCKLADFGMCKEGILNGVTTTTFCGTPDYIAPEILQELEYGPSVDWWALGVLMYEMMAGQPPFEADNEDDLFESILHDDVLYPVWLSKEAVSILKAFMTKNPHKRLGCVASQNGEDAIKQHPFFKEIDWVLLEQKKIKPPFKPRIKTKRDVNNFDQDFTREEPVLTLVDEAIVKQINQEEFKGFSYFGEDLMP
pIC50: −log10 of the molar value.
Measured parameter: pIC50

P = C[C@@]1(OC(=O)c2cc(O)c(C(=O)c3c(O)cccc3C(=O)O)c(O)c2)CCCNC[C@H]1NC(=O)c1ccc(O)cc1
Q = O=C(N[C@@H]1CCC[C@H]1COC(=O)c1cc(O)c(C(=O)c2c(O)cccc2C(=O)O)c(O)c1)c1ccc(O)cc1
// pick min by pIC50: P , Q Identify your pick by its label.
Q

* * *

target: Protein kinase C eta type (Homo sapiens)
Sequence (P24723 whole entry): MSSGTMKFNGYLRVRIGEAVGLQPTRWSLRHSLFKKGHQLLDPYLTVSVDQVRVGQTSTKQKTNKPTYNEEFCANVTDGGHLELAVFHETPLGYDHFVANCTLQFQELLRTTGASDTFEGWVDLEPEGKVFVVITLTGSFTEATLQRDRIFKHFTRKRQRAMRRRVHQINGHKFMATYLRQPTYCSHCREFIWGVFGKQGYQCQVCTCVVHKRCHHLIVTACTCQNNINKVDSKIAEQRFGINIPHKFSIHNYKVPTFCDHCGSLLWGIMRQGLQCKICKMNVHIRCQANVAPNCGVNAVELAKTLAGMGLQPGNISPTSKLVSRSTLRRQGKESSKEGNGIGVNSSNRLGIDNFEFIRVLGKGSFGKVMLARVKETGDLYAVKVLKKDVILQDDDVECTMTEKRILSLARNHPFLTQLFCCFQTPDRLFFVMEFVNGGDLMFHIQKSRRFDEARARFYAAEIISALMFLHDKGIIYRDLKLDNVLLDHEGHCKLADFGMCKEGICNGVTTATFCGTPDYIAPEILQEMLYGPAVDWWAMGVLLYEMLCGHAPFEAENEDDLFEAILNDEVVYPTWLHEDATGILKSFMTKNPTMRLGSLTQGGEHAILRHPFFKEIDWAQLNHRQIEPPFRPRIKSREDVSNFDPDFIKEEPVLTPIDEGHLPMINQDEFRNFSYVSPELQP
Measured parameter: IC50 (nM)

Some entries whose results are on file:
# Compound, Measured parameter, Reading
records = [
    ("O=C(N[C@@H]1CNCCC[C@H]1OC(=O)c1cc(O)c(C(=O)c2c(O)cccc2C(=O)O)c(O)c1)c1ccc(O)cc1 [BALANOL]", "IC50", 3),
    ("O=C(N[C@@H]1CCC[C@H]1OCc1cc(O)c(C(=O)c2c(O)cccc2C(=O)O)c(O)c1)c1ccc(O)cc1", "IC50", 30),
]

a = O=C(NC[C@@H]1CCC[C@H]1NC(=O)c1ccc(O)cc1)c1cc(O)c(C(=O)c2c(O)cccc2C(=O)O)c(O)c1
b = O=C(N[C@@H]1CNC[C@H]1NC(=O)c1cc(O)c(C(=O)c2c(O)cccc2C(=O)O)c(O)c1)c1ccc(O)cc1
c = C[C@@]1(OC(=O)c2cc(O)c(C(=O)c3c(O)cccc3C(=O)O)c(O)c2)CCCNC[C@H]1NC(=O)c1ccc(O)cc1
Arrange the 3 compounds from largest to smallest IC50. Answer format: the labels, ordered as requested.
a, c, b
(a: 2300 nM, c: 20 nM, b: 3 nM)
